subject-of-test: T1, NHERF3_3, Q5T2W1
T1 sequence (Q5T2W1 238-333, limits assumed, looked up): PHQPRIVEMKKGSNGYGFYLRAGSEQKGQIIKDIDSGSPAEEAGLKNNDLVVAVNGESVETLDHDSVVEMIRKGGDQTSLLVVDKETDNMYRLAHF
assay-text: holdup assay
Parameters: key: below the threshold = too weak to quantify, mostly under pKd 3.1 to 4
study-conditions: plain residues with an end cap or a label only (N-terminal biotin on a linker: ttds)

binder | pKd
QSARYRDTEL [TJP2, Q9UDY2] | below the threshold
IYVPEAQTRL [DLGAP4, Q9Y2H0] | 4.14
VLRLQSETSV [VANGL1, Q8TAA9] | below the threshold
SRPQRTQTQV [HPV67-E6, A4U7F2] | below the threshold
RSLEEEESQL [GRASP, Q7Z6J2] | below the threshold
IDNDTESTAL [ARHGAP17, Q68EM7] | below the threshold
SSRTRRETQL [HPV16-E6, P03126] | 3.72
TVASEKESVM [SLC1A5, Q15758] | below the threshold
ERKLSSESQV [LRP4, O75096] | below the threshold
STLTIFETAL [ABCC4, O15439] | 3.61
PKTPPTDTSV [KIR3DL3, Q8N743] | below the threshold
GQDSREETQL [KCNT2, Q6UVM3] | below the threshold
SVWLRKETRV [CYSLTR2, Q9NS75] | 3.52
